Each entry below carries its reported TGI.
# Tested on: IGROV1 ovarian
# method.description: NCI tumour cell line growth inhibition, 48 h
Give just the numeric value; µM need not be written.

Nc1c(O)c2c(c(O)c1Cl)C(=O)C=CC2=O; 14

[Q] Name the recorded TGI for COC(=O)[C@H](C)[C@H]1CC[C@@](C)([C@H]2CC3C(C)(C)[C@H]4CCC(C)=C[C@H]4C[C@@]3(C)O2)OO1 (some centres undefined) .
[A] 11.1

[Q] Same for "Clc1ccc(Nc2ccnc(NCCNc3ccnc4cc(Cl)ccc34)n2)cc1"
[A] 3.12

[Q] Same for "CCCCCCCCCCCCOCCCCCCCCC/C=C/c1ccc2c(c1)OCCOCCOCCOCCO2"
[A] 50.6

[Q] Same for CC(C)(C)[Si](C)(C)OC1[C@@H](O[Si](C)(C)C(C)(C)C)[C@@H](CNC(=O)NC(=O)NC(=O)CI)O[C@H]1n1cnc2c(NC(=O)Nc3ccccc3)ncnc21 (some centres undefined)
[A] 0.246

---

# Test system: PC-3 prostate
# method.description: NCI tumour cell line growth inhibition, 48 h
Each entry below carries its reported TGI.
Give just the numeric value; µM need not be written.

Solved entries:
COc1ccc(/C=C/C(=O)/C=C(/C=C/c2ccc(OC)c(OC)c2)OB(F)F)cc1OC; 7.51
O=C(Nc1cccc(NS(=O)(=O)c2ccc(F)cc2)c1)c1ccc(-c2ccccc2)cc1; 32.6

[Q] Name the recorded TGI for "CC(=O)O[C@H]1CC[C@@]2(C)C(=CC[C@H]3[C@@H]4C[C@H](N5CCN(C)CC5)[C@H](OC(C)=O)[C@@]4(C)CC[C@@H]32)C1" .
[A] 32.5

[Q] Same for "O=C(CSc1nc2ccc([N+](=O)[O-])cc2[nH]1)Nc1cccc(C(F)(F)F)c1"
[A] 11.9

[Q] Same for "COc1c(O)cc2oc3cc(O)c(CC=C(C)C)c(O)c3c(=O)c2c1C/C=C(\C)CCC=C(C)C"
[A] 11.2

---

Each entry below carries its reported GI50.
# Tested on: MDA-MB-231 breast
# method.description: NCI tumour cell line growth inhibition, 48 h

Solved entries:
COC(=O)/C=C1\SC(=Nc2ccc(C(F)(F)F)cc2)N(CCc2c[nH]c3ccccc23)C1=O; 1500 nM
COc1ccc(C(=O)c2cc(OC)c(OC)c(OC)c2)cc1/C=C/C(=O)c1ccc(O)cc1; 4020 nM
Cn1cc(-c2nc(-c3c[nH]c4ncccc34)cs2)c2cc(Cl)ccc21; 2650 nM
C=C1C(=O)O[C@H]2[C@H]1CC/C(COC(=O)/C=C/c1cccnc1)=C\CC[C@@]1(C)O[C@@H]21; 2000 nM

Now look at this one.
[Q] Name the recorded GI50 for "CCN(Cc1ccc(F)cc1F)c1ccc(CO)c(Cl)c1" .
[A] 12100 nM

---

Each entry below carries its reported GI50.
# Tested on: HOP-62 NSCLC
# method.description: NCI tumour cell line growth inhibition, 48 h

CN(C)CCCNC(=O)c1cc(NC(=O)c2cc(NC(=O)CCCN3c4ccccc4C=Cc4ccccc43)cn2C)cn1C; 10.2 µM

[Q] Name the recorded GI50 for "COC(=O)c1ccc(-c2nc3cc(F)c(F)cc3nc2C#N)cc1" .
[A] 9.9 µM

[Q] Same for "Clc1ccc(Nc2ccnc(NCCNc3ccnc4cc(Cl)ccc34)n2)cc1"
[A] 1.27 µM

[Q] Same for O=P(Oc1ccccc1)(Oc1ccccc1)C(O)c1ccccc1 (stereo not given)
[A] 39.3 µM

[Q] Same for "COc1ccc(/C=C/C(=O)/C=C(/C=C/c2ccc(OC)c(OC)c2)OB(F)F)cc1OC"
[A] 2.46 µM
